The following are reported Kd results, target or system DYRK1B (Homo sapiens, UniProt Q9Y463).

// worked examples, Kd included
COMPOUND	TEST VALUE
Cc1ncsc1-c1ccc(CNC(=O)[C@@H]2C[C@@H](O)CN2C(=O)[C@@H](NC(=O)CCOCCOCCN2CCN(c3ccc(-n4c(C)nc5ccc(-c6ccnc(N)c6)nc54)cc3F)CC2)C(C)(C)C)cc1	< 0.01 µM
Cc1nc2ccc(-c3ccnc(N)c3)nc2n1-c1ccc(N2CCN(CC#Cc3cncc(N4CCC(C(=O)N5CCC(n6cc(CNc7cccc8c7C(=O)N(C7CCC(=O)NC7=O)C8=O)cn6)CC5)CC4)n3)CC2)c(F)c1 (stereo not drawn)	0.01 to 0.1 µM

Q. Quote DYRK1B (Homo sapiens, UniProt Q9Y463) Kd for entry Cc1nc2ccc(-c3ccnc(N)c3)nc2n1-c1cc(F)c(N2CCN(C3CCN(CC#Cc4ccc(N5CCC(C(=O)N6CCC(n7cc(CNc8cccc9c8C(=O)N(C8CCC(=O)NC8=O)C9=O)cn7)CC6)CC5)nc4)CC3)CC2)c(F)c1 (stereo not drawn) .
A. < 0.01 µM

----------
Reported values: Kd for DYRK1B (Homo sapiens, UniProt Q9Y463), one per item.

Examples with their reported Kd follow.
COMPOUND	TEST VALUE
Cc1nc2ccc(-c3ccnc(N)c3)nc2n1-c1ccc(N2CCN(CCOCCOCCOCCOCCNc3cc4c(cc3F)C(=O)N(C3CCC(=O)NC3=O)C4=O)CC2)c(F)c1 (stereo not drawn)	10 to 100 nM
Cc1nc2ccc(-c3ccnc(N)c3)nc2n1-c1ccc(N2CCN(C(=O)CCN3CCN(Cc4ccc(CNc5cccc6c5CN(C5CCC(=O)NC5=O)C6=O)cc4)CC3)CC2)c(F)c1 (stereo not drawn)	10 to 100 nM

// switching to the query compound
Q. # assay system DYRK1B (Homo sapiens, UniProt Q9Y463): give Kd of Cc1nc2ccc(-c3ccnc(N)c3)nc2n1-c1ccc(N2C3CCC2CN(CC#Cc2ccc(N4CCC(C(=O)N5CCC(n6cc(CNc7cccc8c7C(=O)N(C7CCC(=O)NC7=O)C8=O)cn6)CC5)CC4)nc2)C3)c(F)c1 (stereo not drawn)
A. 100 to 1000 nM

----------
# TARGET SYSTEM: DYRK1A (Homo sapiens, UniProt Q13627)
# Construct: purchased Eurofins; host or cells: E. coli BL21-derived (T7 phage display) or HEK-293
# ASSAY SUMMARY: HiBiT split luciferase assay of targeted degradation of DYRK1A in Flp-In T-REx 293 cells
# Type: cell-based
# EXPERIMENTAL SETUP: 300 nM compound, 24 h, HiBiT-tagged DYRK1A in Flp-In T-REx 293 cells, normalized to vehicle; read-out: Relative Degradation at 300 nM DYRK1A
Entries and their inhibition at 0.3 µM

# annotated cases, reported inhibition at 0.3 µM shown
COMPOUND	TARGET SYSTEM	inhibition at 0.3 µM
Cc1nc2ccc(-c3ccnc(N)c3)nc2n1-c1ccc(CN2CCN(CC#Cc3ccc(N4CCC(C(=O)N5CCC(n6cc(CNc7cccc8c7C(=O)N(C7CCC(=O)NC7=O)C8=O)cn6)CC5)CC4)nc3)CC2)cc1 (stereo not drawn)	DYRK1A (Homo sapiens, UniProt Q13627)	> 60%
Cc1nc2ccc(-c3ccnc(N)c3)nc2n1-c1ccc(N2CCN(CCOCCOCCOCCNc3cccc4c3C(=O)N(C3CCC(=O)NC3=O)C4=O)CC2)c(F)c1 (stereo not drawn)	DYRK1A (Homo sapiens, UniProt Q13627)	30 to 60%
Cc1ncsc1-c1ccc(CNC(=O)[C@@H]2C[C@@H](O)CN2C(=O)[C@@H](NC(=O)CCOCCOCCOCCOCCOCCN2CCN(c3ccc(-n4c(C)nc5ccc(-c6ccnc(N)c6)nc54)cc3F)CC2)C(C)(C)C)cc1	DYRK1A (Homo sapiens, UniProt Q13627)	< 30%
Cc1nc2ccc(-c3ccnc(N)c3)nc2n1-c1ccc(N2CCN(CCOCCOCCOCCC(=O)N3CCN(c4ccc5c(c4)C(=O)N(C4CCC(=O)NC4=O)C5=O)CC3)CC2)c(F)c1 (stereo not drawn)	DYRK1A (Homo sapiens, UniProt Q13627)	< 30%
Cc1nc2ccc(-c3ccnc(N)c3)nc2n1-c1ccc(N2CCN(C(=O)CN3CCC(CC(=O)N4CCC(n5cc(CNc6cccc7c6C(=O)N(C6CCC(=O)NC6=O)C7=O)cn5)CC4)CC3)CC2)c(F)c1 (stereo not drawn)	DYRK1A (Homo sapiens, UniProt Q13627)	< 30%
Cc1ncsc1-c1ccc(CNC(=O)[C@@H]2C[C@@H](O)CN2C(=O)[C@@H](NC(=O)CCOCCOCCOCCOCCN2CCN(c3ccc(-n4c(C)nc5ccc(-c6ccnc(N)c6)nc54)cc3F)CC2)C(C)(C)C)cc1	DYRK1A (Homo sapiens, UniProt Q13627)	< 30%

Q. Return inhibition at 0.3 µM for the following compound: Cc1nc2ccc(-c3ccnc(N)c3)nc2n1-c1ccc(N2CCN(CC#Cc3ccc(N4CCC(C(=O)N5CCC(n6cc(CNc7cccc8c7C(=O)N(C7CCC(=O)NC7=O)C8=O)cn6)CC5)CC4)nc3)CC2)c(C(F)(F)F)c1 (stereo not drawn)
A. > 60%

Q. Answer with reported inhibition at 0.3 µM of Cc1nc2ccc(-c3ccnc(N)c3)nc2n1-c1ccc(N2CCN(CC#Cc3ccc(N4CCC(O)(C(=O)N5CCC(n6cc(CNc7cccc8c7C(=O)N(C7CCC(=O)NC7=O)C8=O)cn6)CC5)CC4)nc3)CC2)c(F)c1 (stereo not drawn)
A. > 60%

Q. Please list inhibition at 0.3 µM recorded for the compound Cc1nc2ccc(-c3ccnc(N)c3)nc2n1-c1ccc(N2CCN(CCC#Cc3ccc(N4CCC(C(=O)N5CCC(n6cc(CNc7cccc8c7C(=O)N(C7CCC(=O)NC7=O)C8=O)cn6)CC5)CC4)nc3)CC2)c(F)c1 (stereo not drawn)
A. > 60%
